system-name: Apelin receptor (Homo sapiens, UniProt P35414)
Sequence (P35414 whole entry): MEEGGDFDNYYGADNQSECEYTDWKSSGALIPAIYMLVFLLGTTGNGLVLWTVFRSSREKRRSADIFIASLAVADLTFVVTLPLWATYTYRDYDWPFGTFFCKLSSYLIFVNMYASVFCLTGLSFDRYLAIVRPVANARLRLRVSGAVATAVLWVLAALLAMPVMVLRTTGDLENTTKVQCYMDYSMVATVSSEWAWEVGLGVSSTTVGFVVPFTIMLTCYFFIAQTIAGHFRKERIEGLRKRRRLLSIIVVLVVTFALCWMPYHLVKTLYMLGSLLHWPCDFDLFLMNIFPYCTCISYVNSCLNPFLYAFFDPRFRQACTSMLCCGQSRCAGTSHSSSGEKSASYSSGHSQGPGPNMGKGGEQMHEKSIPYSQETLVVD
method-notes: GTPγS Binding: The human APJ receptor was cloned by polymerase chain reaction and the gene encoding the receptor was subcloned in pFLAG-CMV-3 expression vector (Sigma, Saint Louis, Mo. USA) in-house at Amgen. A GTPγS binding assay was performed on membranes prepared from CHO cells stably expressing human APJ receptor. The optimum experimental conditions for the concentrations of GDP, MgCl2, and NaCl in the assay buffer were initially determined. The assay was performed in assay buffer [20 mM HEPES, pH 7.5, 5 mM MgCl2, and 0.1% (w/v) BSA with 200 mM NaCl, 3 μM GDP] and membranes expressing human APJ receptor/well along with WGA PS beads. The reaction was initiated by addition of 0.2 nM [35S]GTPγS in the absence or presence of various ligands and incubated at RT for 90 min. Nonspecific binding was determined in the presence of 100 μM GTPγS and was always less than 0.2% of total binding.
pEC50: −log10 of the molar value.
The label depends only on pEC50: MET if it is at least 9, NOT MET if it is smaller.

{"columns": ["molecule", "system-name", "category-label"],
 "data": [
  ["COc1cccc(OC)c1-n1c(NS(=O)(=O)CCc2ncc(F)cn2)nnc1-c1ccco1", "Apelin receptor (Homo sapiens, UniProt P35414)", "NOT MET"],
  ["COc1cccc(OC)c1-n1c(NS(=O)(=O)[C@@H](C)[C@@H](O)c2ncc(F)cn2)nnc1-c1ccc(C)o1 (single isomer, unassigned)", "Apelin receptor (Homo sapiens, UniProt P35414)", "MET"],
  ["COc1cccc(OC)c1-n1c(NS(=O)(=O)[C@H](C)Cc2ncc(F)cc2NC(C)=O)nnc1-c1ccco1 (single isomer, unassigned)", "Apelin receptor (Homo sapiens, UniProt P35414)", "MET"],
  ["COc1cc[nH]c(=O)c1-n1c(NS(=O)(=O)[C@@H](C)[C@H](C)c2ncc(C)cn2)nnc1-c1ccc(C)o1 (single isomer, unassigned; form 2)", "Apelin receptor (Homo sapiens, UniProt P35414)", "NOT MET"],
  ["COc1cccc(OC)c1-n1c(NS(=O)(=O)[C@@H]2CCC[C@H]2c2ncc(F)cn2)nnc1-c1ccc(C)o1 (single isomer, unassigned)", "Apelin receptor (Homo sapiens, UniProt P35414)", "NOT MET"],
  ["COc1cccc(OC)c1-n1c(NS(=O)(=O)[C@H](C)[C@@H](O)c2ccnc3c2OCCC3)nnc1-c1ccc(C)o1 (mixture of isomers)", "Apelin receptor (Homo sapiens, UniProt P35414)", "NOT MET"],
  ["COc1ncnc(OC)c1-n1c(NS(=O)(=O)[C@@H](C)Cc2ncc(F)cn2)nnc1-c1ccc(C)o1 (mixture of isomers)", "Apelin receptor (Homo sapiens, UniProt P35414)", "NOT MET"]
]}

Cited source for all entries: ChEMBL document CHEMBL5727878
